Values from PubChem BioAssay (NCI)

tested on: HOP-62 NSCLC; assay: NCI tumour cell line growth inhibition, 48 h
PARAMETER: log10 of TGI (log10 of the value in µM)

| STRUCTURE_AS_SMILES | RECORDED_NUMBER |
| --- | --- |
| O=C(NNS(=O)(=O)c1ccc(Cl)cc1Cl)c1cccnc1Nc1ccc(Cl)cc1 | 1.58 |
| COc1cc(C(=O)Nc2cc(O)c(CC=C(C)C)c(O)c2)cc2c1O[C@]1(C)CC[C@@H](O)C(C)(C)[C@H]1C2 | 0.94 |
| CC(=O)O[C@@H]1C[C@@]2(C)[C@@H]3CC=C4[C@@H](C[C@H](O)C(=O)C4(C)C)[C@]3(C)C(=O)C[C@]2(C)[C@H]1[C@@](C)(O)C(=O)/C=C/C(C)(C)OC(C)=O | 0.72 |
| CC(C)/C(Cl)=N/OC(=O)Nc1ccc(Cl)c(Cl)c1 | 1.52 |
| O=c1c2cc(F)ccc2sc2c(NCCCNCCO)nc3ccccc3c12 | 0.57 |
| CCOC(=O)/C(I)=C/c1cc(OC)c(OC)c(OC)c1 | 1.98 |
| COc1ccc(/C=C(\C)[N+](=O)[O-])cc1OC | 1.21 |
| C=C(C)[C@@H]1CC[C@]2(C(=O)OC)CC[C@]3(C)[C@H](CC[C@@H]4[C@@]5(C)CC[C@H](O)C(C)(C)[C@@H]5CC[C@]43C)[C@@H]12 | 1.62 |
